# System: DLD-1
# assay_name: NCI tumour cell line growth inhibition, 48 h
Calls of active or inactive are those of the source. Cut-off read from the data, not from the text of the source: active = GI50 up to about 1.1 µM and inactive = higher.
Record form. Attribute: GI50. Fill in for each entry.

// solved cases for GI50 follow
{"molecule": "COc1cc2c(oc(=O)c3c4occc4cc(OC)c23)c2cccc(O)c12", "GI50": "> 100 µM (inactive)"}
{"molecule": "CC1(C)CC(Nc2ccc(Nc3ccccc3)cc2)CC(C)(C)N1", "GI50": "70.5 µM (inactive)"}
{"molecule": "CCOC(=O)C1Oc2ccc([N+](=O)[O-])c3c2C1(O)CCC3 (configuration not stated)", "GI50": "> 100 µM (inactive)"}

// for each molecule in input: emit GI50
1. Cc1cc2c(=O)cc(-c3cccs3)oc2c(C(=O)O)c1C
2. COc1ccc(C(=O)C2CCC(C(=O)O)C2)cc1 (configuration not stated)
3. C[N+](C)(C)CC1CCCC/C1=N\OC(=O)c1ccccc1 (configuration not stated)
4. O=c1cnn(C2OC(CO)C(O)C2O)c(=S)[nH]1 (configuration not stated)

["> 100 µM (inactive)", "> 100 µM (inactive)", "> 100 µM (inactive)", "8.47 µM (inactive)"]

// for each molecule in input: emit GI50
1. Brc1ccccc2cc(-c3ccccc3)nc1-2
2. N#C/C(=C/c1cccc(Oc2ccccc2)c1)c1ccccc1
3. CC1(C)OC(=S)N(c2ccccc2)C12C=Cc1cc3ccccc3nc1S2 (configuration not stated)
4. CC1(C)CC2CC(CC(C)(C)C2=O)C1=O

1.94 µM (inactive)
> 100 µM (inactive)
40.6 µM (inactive)
> 100 µM (inactive)

Just so you know, measured GI50 for O=C(O)c1ccccc1C(=O)c1ccco1 came out at > 100 µM (inactive)

###

# System: SNB-75
# assay_name: NCI tumour cell line growth inhibition, 48 h
Activity calls are given as the source filed them. Cut-off read from the data, not from the text of the source: active = GI50 up to about 1.1 µM and inactive = higher.
Please reply with one of these outcomes: true = active, false = inactive

{"compound": "CC(=O)Nc1ccc(-c2nc3ccccc3s2)cc1", "qualitative_label": "false"}
{"compound": "CSc1nc2ccccc2c(=O)n1/N=C1\\C(=O)N(CN2CCOCC2)c2ccc(Cl)cc21", "qualitative_label": "false"}
{"compound": "COc1ccc(C2SCC(=O)N2c2ccc(-n3c(-c4ccccc4)nc4ccccc4c3=O)cc2)cc1 (stereo not drawn)", "qualitative_label": "false"}

Hi team, can someone confirm the assay call for COc1ccccc1Nc1nc(N)nc(N)c1N=O ?
false

Hi team, can someone confirm the assay call for Cc1c(O)c(OC2OC(CO)C(O)C(O)C2O)cc2c1C=C[C@@H]1[C@@]2(C)C(=O)C[C@]2(C)[C@@H]([C@@](C)(O)C(O)/C=C/C(C)(C)O)[C@H](O)C[C@@]12C (stereo partly drawn) ?
false

Hi team, can someone confirm the assay call for COc1ccc(C(OC(=O)[C@H](O[Si](C)(C)C(C)(C)C)[C@@H](NC(=O)c2ccccc2)c2ccccc2)c2ccc(OC)cc2)cc1 ?
false

Hi team, can someone confirm the assay call for C=C/C(C)=C/[C@H](C)C(=O)C[C@H](O)CC1CC(=O)NC(=O)C1 ?
false

Hi team, can someone confirm the assay call for COc1ccc([C@@]23Oc4cc(OC)cc(OC)c4[C@]2(O)[C@H](O)[C@H](C(=O)N(C)C)[C@H]3c2ccccc2)cc1 [ROCAGLAMIDE] ?
true

Hi team, can someone confirm the assay call for COC(=O)c1c(C#N)[nH]c(-c2ccsc2)c1C(=O)OC ?
false

Hi team, can someone confirm the assay call for CC1=NN(C(=O)CC(=O)Nc2ccccc2)C(=O)C1/N=N/c1ccc(S(N)(=O)=O)cc1 (stereo not drawn) ?
false

Hi team, can someone confirm the assay call for COC(=O)C12Oc3ccc(-c4ccc5c(c4O)C(=O)C4=CCC(C)C(O)C4(C(=O)OC)O5)c(O)c3C(=O)C1=CCC(C)C2O (stereo not drawn) ?
false

Hi team, can someone confirm the assay call for CCOC(=O)c1ccc(N[C@@H]2c3cc4c(cc3C(c3cc(OC)c(O)c(OC)c3)[C@H]3C(=O)OCC32)OCO4)cc1 (stereo partly drawn) ?
false

Hi team, can someone confirm the assay call for CCCCOP1(=O)C=CC(Cl)=C(C)C1 (stereo not drawn) ?
false

Hi team, can someone confirm the assay call for COC(=O)c1cc(Br)c(Br)n1C ?
false

Hi team, can someone confirm the assay call for Oc1ncnc2c1nnn2CCCCCCCCCCCCn1nnc2c(O)ncnc21 ?
false

Hi team, can someone confirm the assay call for Cc1ccc2c(c1)-c1c(C#N)c(N)nc(-c3ccc(Cl)cc3)c1CCS2(=O)=O ?
false

Hi team, can someone confirm the assay call for c1ccc(-c2nn(-c3ccccc3)[n+](-c3ccccc3)n2)cc1 [TETRAZOLIUM RED] ?
false

Hi team, can someone confirm the assay call for Cc1ccc(S(=O)(=O)NC(=O)C#CCOC2CCCCO2)cc1 (stereo not drawn) ?
false
